FYI, the data here is from patent US20220008527A1.

experimentalTarget: T1, recombinant human heat shock cognate 71 kDa protein (Hsc70) (human, UniProt P11142 1-646, limits assumed)
T1 construct: also called rhHsc70; human Hsc70
T1 sequence (P11142 whole entry): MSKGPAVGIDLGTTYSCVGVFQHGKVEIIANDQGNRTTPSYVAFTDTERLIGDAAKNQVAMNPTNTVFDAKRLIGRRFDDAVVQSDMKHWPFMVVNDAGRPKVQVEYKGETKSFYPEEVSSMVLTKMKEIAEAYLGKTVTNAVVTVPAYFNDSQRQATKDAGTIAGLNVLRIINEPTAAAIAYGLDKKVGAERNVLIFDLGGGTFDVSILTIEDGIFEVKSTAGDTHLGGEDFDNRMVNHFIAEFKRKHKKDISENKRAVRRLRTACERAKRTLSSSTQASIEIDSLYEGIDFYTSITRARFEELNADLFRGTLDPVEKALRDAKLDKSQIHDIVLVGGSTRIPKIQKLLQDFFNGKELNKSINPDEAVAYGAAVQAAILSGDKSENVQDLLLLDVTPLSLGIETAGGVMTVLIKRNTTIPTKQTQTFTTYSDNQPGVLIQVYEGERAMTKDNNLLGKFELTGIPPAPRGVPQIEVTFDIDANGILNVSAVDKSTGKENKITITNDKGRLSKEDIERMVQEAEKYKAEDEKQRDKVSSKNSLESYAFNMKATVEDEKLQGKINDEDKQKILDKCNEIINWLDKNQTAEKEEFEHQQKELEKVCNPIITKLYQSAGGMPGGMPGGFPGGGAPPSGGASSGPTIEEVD
protocolText: SEC of peptide-Hsc70 mixture; peptide:Hsc70 molar ratio 2:1
readoutKind: Percent complexation with Hsc70 (%)
Quick reminder: number only, in %, skip the unit.

The binder listed as FFRKNWLLLTW (Synthetic peptide) [PEP003] shows Percent complexation with Hsc70 equal to 81.3

Per the records, this binder ( FFRKNRLWLTG (Synthetic peptide) [PEP005] ) has Percent complexation with Hsc70 equal to 67.6

Notebook: FFRKNWLKLWK (Synthetic peptide) [PEP058] , Percent complexation with Hsc70 read as 78.8

# Percent complexation with Hsc70 of FFRKNWIRITW (Synthetic peptide) [PEP013] = 81.9
